target: UniProt Q8ILY1; assay: Fluorescence-based high-throughput DNA polymerase assay (molecular beacon), primary screen and dose-response; type: biochemical; details: DRC-2; 180'; concentration 80;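 further: test concentration in µM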
Sequence (Q8ILY1 entry or part of it): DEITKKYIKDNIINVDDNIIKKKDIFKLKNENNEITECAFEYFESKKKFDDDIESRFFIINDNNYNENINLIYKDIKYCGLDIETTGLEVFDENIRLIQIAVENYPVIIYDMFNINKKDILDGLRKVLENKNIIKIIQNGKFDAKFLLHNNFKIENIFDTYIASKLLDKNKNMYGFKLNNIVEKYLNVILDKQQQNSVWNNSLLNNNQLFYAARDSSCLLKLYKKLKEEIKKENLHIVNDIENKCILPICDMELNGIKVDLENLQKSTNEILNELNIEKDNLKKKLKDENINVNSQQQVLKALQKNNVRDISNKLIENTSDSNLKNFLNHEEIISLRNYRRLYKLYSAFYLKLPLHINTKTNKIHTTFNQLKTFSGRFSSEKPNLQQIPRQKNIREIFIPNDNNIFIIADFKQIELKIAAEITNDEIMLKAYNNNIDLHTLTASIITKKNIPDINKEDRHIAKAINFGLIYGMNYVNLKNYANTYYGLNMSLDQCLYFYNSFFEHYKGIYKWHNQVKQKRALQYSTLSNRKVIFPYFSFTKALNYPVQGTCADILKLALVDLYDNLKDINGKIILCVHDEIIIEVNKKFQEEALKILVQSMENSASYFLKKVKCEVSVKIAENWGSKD
Binary classification by % inhibition apPOL 180', with 60% as an inclusive lower bound for Y; all other cases are N.

INSERT INTO assay_data (compound, discrete_label) VALUES
  ('CCOc1ccc(/C=C2\N=C(c3cc([N+](=O)[O-])cc([N+](=O)[O-])c3)OC2=O)cc1', 'Y'),
  ('Cc1cc(C)c2c(O)nc(SCC(=O)c3ccc(O)c(O)c3)nc2n1', 'N'),
  ('O=C(Nc1ccc2c(c1)Cc1cc(NC(=O)c3ccco3)ccc1-2)c1ccco1', 'Y'),
  ('Cc1cc(C)c(O)c(/N=C/c2cc([N+](=O)[O-])cc(Br)c2O)c1', 'Y'),
  ('Cc1ccc(C(=O)/C=C/C=C/C=C/N(C)C)o1', 'N'),
  ('O=C(NCC1CCN(C2CCCC2)CC1)C(=O)NC1CCCC1', 'N'),
  ('COc1ccc(CNC(=O)Cn2nc3c(c2NC(=O)Cc2cccs2)CSC3)cc1', 'Y'),
  ('CC(C)(C)OC(=O)COc1ccc2cc(-c3ccccc3)c(=O)oc2c1', 'N'),
  ('CCCCCCCCCCCC1SCC(C(=O)O)N1C(C)=O (stereo not drawn)', 'Y'),
  ('O=C(Nc1nnc(-c2ccno2)o1)c1ccc2c(c1)OCO2', 'N'),
  ('COc1ccc(-c2n[nH]cc2Oc2ccc(Cl)cc2)c(O)c1', 'Y'),
  ('O=C(CSc1nc2ccccc2s1)Nc1ncc([N+](=O)[O-])s1', 'N'),
  ('Cc1cc(C)cc(-n2nc3c(c2NC(=O)c2ccco2)CSC3)c1', 'Y'),
  ('Cc1cccc(CC(=O)N2CCc3c(nc4cc(-c5ccccc5)[nH]n4c3=O)C2)c1', 'Y'),
  ('Cc1nc(/N=N/c2ccc(C(=O)[O-])cc2)c(COP(=O)([O-])[O-])c(C=O)c1O.[Na+].[Na+].[Na+]', 'Y'),
  ('CC(=O)Nc1cc(C(=O)c2cccs2)nn(-c2ccc(Cl)cc2)c1=O', 'N'),
  ('COc1cccc(Oc2c(C(F)(F)F)oc3cc(OC(=O)N(C)C)ccc3c2=O)c1', 'N');
